Reference source for all entries: patent US20240010606A1

# ASSAY_PROCEDURE: Hepatocyte stability assay, mouse
# Assay type: in vitro ADME
# RECORDED_CONDITIONS: mouse, cryopreserved hepatocytes, 10 μM compound, Table 6, read-out: T½
# Description: Biological Example 3—Hepatocyte Stability Assay […] The metabolic stability in hepatocytes assay involves a time-dependent reaction using both positive and negative controls. The cells must be pre-incubated at 37° C. then spiked with test compound (and positive control); samples taken at pre-determined time intervals are analysed to monitor the change in concentration of the initial drug compound over 60 minutes. […]
ENDPOINT_LABEL: half-life at 10 μM

{"MOLECULE": "O=C(O)/C=C/C(=O)OC(c1ccc(C(F)(F)F)cc1)C(F)(F)F (single isomer, unassigned) [Intermediate 44]", "ENDPOINT_LABEL": "half-life at 10 μM", "RECORDED_VALUE": "< 5 min"}
{"MOLECULE": "O=C(O)/C=C/C(=O)OC1CC2(CCC2)C1 [Intermediate 7]", "ENDPOINT_LABEL": "half-life at 10 μM", "RECORDED_VALUE": "5 to 29 min"}
{"MOLECULE": "O=C(O)/C=C/C(=O)OC1(c2cccc(C(F)(F)F)c2)CCC1 [Intermediate 10]", "ENDPOINT_LABEL": "half-life at 10 μM", "RECORDED_VALUE": "30 to 100 min"}
{"MOLECULE": "O=C(O)/C=C/C(=O)OC1(c2ccc(OC(F)(F)F)cc2)CCC1 [Intermediate 30]", "ENDPOINT_LABEL": "half-life at 10 μM", "RECORDED_VALUE": "30 to 100 min"}
{"MOLECULE": "O=C(O)/C=C/C(=O)OC1(c2cc(Cl)cc(OC(F)(F)F)c2)CCC1 [Intermediate 41]", "ENDPOINT_LABEL": "half-life at 10 μM", "RECORDED_VALUE": "30 to 100 min"}
{"MOLECULE": "O=C(O)/C=C/C(=O)OC1(c2ccc(C(F)(F)F)cc2)COC1 [Intermediate 18]", "ENDPOINT_LABEL": "half-life at 10 μM", "RECORDED_VALUE": "30 to 100 min"}
{"MOLECULE": "C[C@H]1C[C@](OC(=O)/C=C/C(=O)O)(c2ccc(C(F)(F)F)cc2)C1 (single isomer, unassigned) [Intermediate 33]", "ENDPOINT_LABEL": "half-life at 10 μM", "RECORDED_VALUE": "30 to 100 min"}
{"MOLECULE": "O=C(O)/C=C/C(=O)OC1(c2ccc(C(F)(F)F)s2)CCC1 [Intermediate 36]", "ENDPOINT_LABEL": "half-life at 10 μM", "RECORDED_VALUE": "30 to 100 min"}
{"MOLECULE": "CC(C)(OC(=O)/C=C/C(=O)O)c1ccc(C(F)(F)F)cc1 [Intermediate 21]", "ENDPOINT_LABEL": "half-life at 10 μM", "RECORDED_VALUE": "> 100 min"}
{"MOLECULE": "COC(=O)/C=C/C(=O)OCCN1C(=O)CCC1=O [reference compound]", "ENDPOINT_LABEL": "half-life at 10 μM", "RECORDED_VALUE": "< 5 min"}
{"MOLECULE": "O=C(O)/C=C/C(=O)OC1CCCCCC1 [Intermediate 8]", "ENDPOINT_LABEL": "half-life at 10 μM", "RECORDED_VALUE": "30 to 100 min"}
{"MOLECULE": "O=C(O)/C=C/C(=O)OC1(c2ccc(C(F)(F)F)cc2)CCC1 [Intermediate 3]", "ENDPOINT_LABEL": "half-life at 10 μM", "RECORDED_VALUE": "30 to 100 min"}
{"MOLECULE": "O=C(O)/C=C/C(=O)OC1(c2cc(Cl)cc(Cl)c2)CCC1 [Intermediate 14]", "ENDPOINT_LABEL": "half-life at 10 μM", "RECORDED_VALUE": "5 to 29 min"}
{"MOLECULE": "O=C(O)/C=C/C(=O)OC1(c2ccc(C(F)(F)F)cc2)CC(F)(F)C1 [Intermediate 32]", "ENDPOINT_LABEL": "half-life at 10 μM", "RECORDED_VALUE": "30 to 100 min"}
{"MOLECULE": "O=C(O)/C=C/C(=O)OC1(c2ccc(Br)cc2)CCC1 [Intermediate 12]", "ENDPOINT_LABEL": "half-life at 10 μM", "RECORDED_VALUE": "30 to 100 min"}
{"MOLECULE": "O=C(O)/C=C/C(=O)OC1CCCCCCC1 [Intermediate 6]", "ENDPOINT_LABEL": "half-life at 10 μM", "RECORDED_VALUE": "5 to 29 min"}
